# Test system: PPARg:RXRa DBDmut IVT, anti-RXR (DBD mutation: RXRa K156A/R161A, NR concentration 270 nM, RXRa partner concentration 90 nM)
# assay.explanation: PBM binding z-score (relative to random genomic background probes); higher = stronger binding; sequences stand for … in GC…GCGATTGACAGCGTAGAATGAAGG
Cut-off 3 on PBM binding z-score, inclusive. At or above means fulfilled; below means not fulfilled.

sequence.data: CCGACTGGGGCAAAGGTTAGCATACTCAGTACGA
group.label: fulfilled
--
sequence.data: ACACGGAGGACAAAGGTCAGAGCTACGCCAGTGA
group.label: not fulfilled
--
sequence.data: TAGCCTAGGTCATTCAGGGGCCAGTAGAGAAAGC
group.label: not fulfilled
--
sequence.data: TCTGCTAGCTCAGTTGGTCAGCTAACGAGCTGCC
group.label: not fulfilled
--
sequence.data: CGAGCGAGGGCATGAGTTGATAGCAAATGCCGAT
group.label: not fulfilled
--
sequence.data: AGAACGAGGGCAATGAGTTGATATCACGGGTGGC
group.label: fulfilled
--
sequence.data: CGAACTAGGGCATCCAGGACAGTGAATACATTGA
group.label: fulfilled
--
sequence.data: TCATATAGGTAAAAGGAGAAAGTCGGTGTGGTAA
group.label: fulfilled
--
sequence.data: ATCGAAAGGTCGACGAGCTGAGTATACACCGTTT
group.label: not fulfilled
--
sequence.data: ACTAGTTGGTCATCTGAGGTCACACACAATTCGG
group.label: not fulfilled
--
sequence.data: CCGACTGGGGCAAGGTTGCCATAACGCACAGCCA
group.label: not fulfilled

* * *

PBM binding z-score: recorded values
# Tested on: PXR:RXRa (NR concentration 270 nM, RXRa partner concentration 90 nM)
# assay.explanation: PBM binding z-score (relative to random genomic background probes); higher = stronger binding; sequences stand for … in GC…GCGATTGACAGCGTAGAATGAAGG

sequence.data: CGAACTCGGTCAGAACAGGACAGTGAAGGATGAT
PBM binding z-score: -0.108
--
sequence.data: CCGACTGGGGCAGCAAGGTTACCATACCATCCGG
PBM binding z-score: 0.264
--
sequence.data: TCTGCTAGGTCAACAATGGTCAGCTAATCTGCTA
PBM binding z-score: 1.94
--
sequence.data: TCTTGGAGATCAACAGGAGGTTAAGAAAGATCGA
PBM binding z-score: 1.09
--
sequence.data: CTTTACGGGTCACTGACAGGTTATAGCATTTGGA
PBM binding z-score: 3.9
--
sequence.data: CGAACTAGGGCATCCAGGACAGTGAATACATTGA
PBM binding z-score: -0.0736
--
sequence.data: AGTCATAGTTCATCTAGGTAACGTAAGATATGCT
PBM binding z-score: 2.03

* * *

# Tested on: RARa homodimer (NR concentration 270 nM)
# assay.explanation: PBM binding z-score (relative to random genomic background probes); higher = stronger binding; sequences stand for … in GC…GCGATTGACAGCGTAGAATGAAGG

sequence.data: CCGTCTGGGGCAGAAAGGTTACCATACCATCCGG
PBM binding z-score: -0.0366
--
sequence.data: GGAACGAGGGCAAAGTTGAAAGCATCTGTCGACG
PBM binding z-score: -0.362
--
sequence.data: AGTCAAAGTTCAGGACGAGTTAACGTAAAGCACG
PBM binding z-score: 1.1
--
sequence.data: TGAATGAGGTTAAAGTTCAGGGAACGTGGCGTCG
PBM binding z-score: 0.262
--
sequence.data: CGAACAAGGTCAGAACAGGACAGTGAAGGATGAT
PBM binding z-score: 0.0836
--
sequence.data: CGTACTAGGTCAGAACAGGACAGTGAAGGATGAT
PBM binding z-score: 0.637
--
sequence.data: ATATGGAGGTTATCGGGTCATTCAGTTTGCGCAT
PBM binding z-score: 1.62
--
sequence.data: AGAACGAGGGCCCGCTGAGTTGATAGCAGAGTAG
PBM binding z-score: -1.68
--
sequence.data: ATATGTAGGTTAGCTGGGGTCAATCAGACTAGGC
PBM binding z-score: 1.21
--
sequence.data: CTCGAAAGGTCGTGCTCCGGTGAGTATACCAAAC
PBM binding z-score: -0.416
--
sequence.data: TCTAGTAGGTTACCAATGGGGCATTCAGCTTTCT
PBM binding z-score: 5.32e-05
--
sequence.data: CAGCCTAGGTCAGGGCCCGTATAGGAGGAACGTT
PBM binding z-score: -0.25
--
sequence.data: CGTCCAAGGTCAAGGTCAGTCAAAGAGACTCGAA
PBM binding z-score: 2.49
--
sequence.data: AGTCAAAGTTGACTAGGTAACGTAAGATTCAGCT
PBM binding z-score: -0.0612
--
sequence.data: GATACAGCGTCAAGGCCAGAGTACGCGTATTGAT
PBM binding z-score: -0.441
--
sequence.data: CCGACTGGGGCAAGGTTACCACAACGCACAGCCA
PBM binding z-score: 0.366
--
sequence.data: TCGAGTTGGTCACGGAGGTCACACACGACGGGTA
PBM binding z-score: 0.63
--
sequence.data: CGTCAAAGTTCCACTAAGGTAACGTAAAGCACGC
PBM binding z-score: 0.139
--
sequence.data: CAAACTAGGTTACAGAGGTCAAAGTCCGTGCGTA
PBM binding z-score: 2.06

Measured values drawn from the supplement of paper PMC6555819 for this set.
